The following molecules are shown together with reported activity coefficient values.
assay comment: activity coefficient (dimensionless); of the first substance listed, at infinite dilution; xn = mol fraction of the nth substance listed
assay conditions: 343.85 K; Liquid; Chromatography; x1 = 0
assay endpoint: activity coefficient

{"columns": ["molecule", "assay endpoint", "result"],
 "data": [
  ["Cc1ccc(C)cc1 [1,4-dimethylbenzene] + CCCCCC[N+](C)(C)C.O=S(=O)([N-]S(=O)(=O)C(F)(F)F)C(F)(F)F", "activity coefficient", 1.82],
  ["CC(C)OC(C)C [diisopropyl ether] + CCCCCC[N+](C)(C)C.O=S(=O)([N-]S(=O)(=O)C(F)(F)F)C(F)(F)F", "activity coefficient", 4.03],
  ["CCC=O [propanal] + CCCCCC[N+](C)(C)C.O=S(=O)([N-]S(=O)(=O)C(F)(F)F)C(F)(F)F", "activity coefficient", 0.502],
  ["CCCCCCCCCCCC [dodecane] + CCCCCC[N+](C)(C)C.O=S(=O)([N-]S(=O)(=O)C(F)(F)F)C(F)(F)F", "activity coefficient", 55.8],
  ["CCOC(C)=O [ethyl acetate] + CCCCCC[N+](C)(C)C.O=S(=O)([N-]S(=O)(=O)C(F)(F)F)C(F)(F)F", "activity coefficient", 0.748],
  ["CCCCCCCCCCCCC [tridecane] + CCCCCC[N+](C)(C)C.O=S(=O)([N-]S(=O)(=O)C(F)(F)F)C(F)(F)F", "activity coefficient", 76.2],
  ["C1CCCCCC1 [cycloheptane] + CCCCCC[N+](C)(C)C.O=S(=O)([N-]S(=O)(=O)C(F)(F)F)C(F)(F)F", "activity coefficient", 33.3],
  ["CCCCO [butan-1-ol] + CCCCCC[N+](C)(C)C.O=S(=O)([N-]S(=O)(=O)C(F)(F)F)C(F)(F)F", "activity coefficient", 1.83],
  ["CCO [ethanol] + CCCCCC[N+](C)(C)C.O=S(=O)([N-]S(=O)(=O)C(F)(F)F)C(F)(F)F", "activity coefficient", 1.28],
  ["CC(C)CO [2-methyl-1-propanol] + CCCCCC[N+](C)(C)C.O=S(=O)([N-]S(=O)(=O)C(F)(F)F)C(F)(F)F", "activity coefficient", 1.71],
  ["C=CCCCC [hex-1-ene] + CCCCCC[N+](C)(C)C.O=S(=O)([N-]S(=O)(=O)C(F)(F)F)C(F)(F)F", "activity coefficient", 5.55],
  ["CCCCCCCCCCCCCC [tetradecane] + CCCCCC[N+](C)(C)C.O=S(=O)([N-]S(=O)(=O)C(F)(F)F)C(F)(F)F", "activity coefficient", 101],
  ["CCCCCCCC [octane] + CCCCCC[N+](C)(C)C.O=S(=O)([N-]S(=O)(=O)C(F)(F)F)C(F)(F)F", "activity coefficient", 16.8],
  ["CCCCCCCCCCC [undecane] + CCCCCC[N+](C)(C)C.O=S(=O)([N-]S(=O)(=O)C(F)(F)F)C(F)(F)F", "activity coefficient", 42]
]}
